molecular target: Serine/threonine-protein kinase B-raf (Homo sapiens, UniProt P15056); experiment: Inhibition of wild type B-Raf (unknown origin) by ELISA based assay
Sequence (P15056 whole entry): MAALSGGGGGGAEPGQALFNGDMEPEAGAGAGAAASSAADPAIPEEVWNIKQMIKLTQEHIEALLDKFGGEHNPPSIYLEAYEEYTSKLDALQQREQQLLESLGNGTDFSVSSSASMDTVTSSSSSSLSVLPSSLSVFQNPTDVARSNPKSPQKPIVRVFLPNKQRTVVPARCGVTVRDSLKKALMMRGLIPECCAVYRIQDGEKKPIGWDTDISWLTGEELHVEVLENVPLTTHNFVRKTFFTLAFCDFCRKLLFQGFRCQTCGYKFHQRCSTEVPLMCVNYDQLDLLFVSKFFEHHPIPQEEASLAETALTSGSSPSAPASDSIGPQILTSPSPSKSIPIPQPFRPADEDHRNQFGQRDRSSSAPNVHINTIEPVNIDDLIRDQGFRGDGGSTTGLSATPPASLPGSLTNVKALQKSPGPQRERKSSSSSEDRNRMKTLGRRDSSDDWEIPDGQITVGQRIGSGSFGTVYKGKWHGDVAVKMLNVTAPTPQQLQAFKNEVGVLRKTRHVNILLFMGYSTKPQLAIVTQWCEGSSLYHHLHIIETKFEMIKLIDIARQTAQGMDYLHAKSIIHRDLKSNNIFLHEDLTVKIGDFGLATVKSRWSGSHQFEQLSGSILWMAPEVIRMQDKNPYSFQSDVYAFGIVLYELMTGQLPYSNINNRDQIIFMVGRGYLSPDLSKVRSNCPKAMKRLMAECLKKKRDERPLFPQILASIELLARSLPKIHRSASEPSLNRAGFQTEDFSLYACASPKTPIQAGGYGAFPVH
pIC50: −log10 of the molar value.
parameter_measured: pIC50

[[record]]
molecule = "CCC[S+]([O-])Nc1ccc(F)c(Cc2c[nH]c3nc(N)n(C)c(=O)c23)c1F (stereo unspecified)"
experimental_value = 6.36


----------
tested on: IGROV-1; test: Antiproliferative activity against human IGROV-1 cells assessed as reduction in cell viability; assay type: functional, cell-based
parameter_measured: IC50 (µM)

[[record]]
structure_string = "O=S(=O)(NCCCNc1nccc(-c2c(-c3cccc(F)c3)nc3occn23)n1)c1ccccc1"
assay_target = "IGROV-1"
parameter_measured = "IC50"
experimental_value = 40.2

